- testTarget: Cx43 EL1 peptide (Homo sapiens)
- Construct: synthetic full-length Cx43 EL1 or EL2 peptide as judged by the Surface Plasmon Resonance Analysis
- Sequence (P17302 45-76 limits assumed): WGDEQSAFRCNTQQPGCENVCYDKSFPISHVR
- assayExplanation: Surface Plasmon Resonance, Cx43 EL1 peptide
- Type: binding
- protocolConditions: Cx43 EL1 peptide
pKd: −log10 of the molar value. Where no end group is shown, it is not given here.

substance: QPGCEN [P4]
testTarget: Cx43 EL1 peptide (Homo sapiens)
pKd: 4.70
